Kindly supply the reported MIC90 values for the records listed here.
# System: Escherichia coli
# experiment_notes: Antibacterial activity against wild type Escherichia coli by broth microdilution method
# Assay type: functional
One number for each entry, in µg/mL.

A selection of reference data follows.
compound	result_value
CN(C)Cc1cc2cc3c(cc2n1C)OCCc1c-3[nH]c(=O)c(C(=O)O)c1O	2
CCNCc1cc2cc(-c3[nH]c(=O)c(C(=O)O)c(O)c3CC)ccc2n1C	4
CC(C)NCc1cc2cc3c(cc2n1C)CCCc1c-3[nH]c(=O)c(C(=O)O)c1O	1
C[C@H]1COc2c(N3CCN(C)CC3)c(F)cc3c(=O)c(C(=O)O)cn1c23.C[C@H]1COc2c(N3CCN(C)CC3)c(F)cc3c(=O)c(C(=O)O)cn1c23.O [LEVOFLOXACIN]	32
Cn1c(CN2CCCC2)cc2cc3c(cc21)OCCc1c-3[nH]c(=O)c(C(=O)O)c1O	1
Cn1c(CNC2(C)CCC2)cc2cc3c(cc21)OCCc1c-3[nH]c(=O)c(C(=O)O)c1O	1
CCNCc1cc2cc3c(cc2n1C)CCCc1c-3[nH]c(=O)c(C(=O)O)c1O	1
CN(C)Cc1cc2cc3c(cc2n1C)CCCc1c-3[nH]c(=O)c(C(=O)O)c1O	1

Please examine the following record next.
Q: # input compound: `Cn1c(CN2CCCC2)cc2cc3c(cc21)CCCc1c-3[nH]c(=O)c(C(=O)O)c1O` ; wanted: its MIC90
A: 0.5

---

# Test system: Acinetobacter baumannii
# experiment_notes: Antibacterial activity against quinolone resistant Acinetobacter baumannii by broth microdilution method
# Type: functional
# measurement_setup: Acinetobacter baumannii; read-out: MIC
Exercise: for every item that follows, state its recorded MIC.

In the examples that follow, each entry is paired with its recorded MIC.
                           structure_string      result_value
0  CCNCc1cc2cc(-c3[nH]c(=O)c(C(=O)O)c(O)c3CC)ccc2n1C   0.5 to 32 µg/mL
1  CC(C)NCc1cc2cc3c(cc2n1C)CCCc1c-3[nH]c(=O)c(C(=O)O)c1O  0.25 to 32 µg/mL
2  CN(C)Cc1cc2cc3c(cc2n1C)CCCc1c-3[nH]c(=O)c(C(=O)O)c1O  0.12 to 16 µg/mL

Parameters: items (list). Returns: MIC for each item.
1. Cn1c(CN2CCCC2)cc2cc3c(cc21)CCCc1c-3[nH]c(=O)c(C(=O)O)c1O
2. Cn1c(CN2CCCC2)cc2cc3c(cc21)OCCc1c-3[nH]c(=O)c(C(=O)O)c1O
3. CCNCc1cc2cc3c(cc2n1C)CCCc1c-3[nH]c(=O)c(C(=O)O)c1O

A:
0.12 to 16 µg/mL
0.12 to 16 µg/mL
0.25 to 32 µg/mL

---

# System: Mus musculus
# experiment_notes: AUC (0 to 24 hrs) in CD1 mouse plasma at 10 mg/kg, iv by LC-MS/MS analysis
# Assay type: ADME, organism-based
# Parameters: time < 24 hr, dose 10 mg/kg, route intravenous
# measurement_setup: in vivo
For each record, write down the corresponding AUC.
Give bare numbers, in ng·h/mL.

                           structure_string  result_value
0  Cn1c(CNC2(C)CCC2)cc2cc3c(cc21)OCCc1c-3[nH]c(=O)c(C(=O)O)c1O          4420
1  CC(C)NCc1cc2cc3c(cc2n1C)CCCc1c-3[nH]c(=O)c(C(=O)O)c1O          1810
2  Cn1c(CN2CCCC2)cc2cc3c(cc21)CCCc1c-3[nH]c(=O)c(C(=O)O)c1O          4050
3  CN(C)Cc1cc2cc3c(cc2n1C)CCCc1c-3[nH]c(=O)c(C(=O)O)c1O          3520
4  Cn1c(CNC2(C)CCC2)cc2cc3c(cc21)CCCc1c-3[nH]c(=O)c(C(=O)O)c1O          4580

API: the following record is the query input.
Q: // AUC lookup, key: `CN(C)Cc1cc2cc3c(cc2n1C)OCCc1c-3[nH]c(=O)c(C(=O)O)c1O`
A: 2930

Hey, just so you know, these numbers are from ChEMBL document CHEMBL4190388.
